Measured pIC50 values are reported for all entries that follow.
molecular target: UniProt Q16539; test: In vitro Inhibition of VEGF Stimulated MAPK Activation
Value format note: pIC50 is -log10 of concentration (mol/L); just state the number.

QUERY SMILES	pIC50
CCCCNC(=O)Nc1ccc(Oc2ncnc3cc(OC)c(OC)cc23)cc1Cl	7.15
COc1cc2nccc(Oc3c(Cl)cc(NC(=O)Nc4ccc(F)cc4F)cc3Cl)c2cc1OC	8.37
CCCNC(=O)Nc1ccc(Oc2ccnc3cc(OC)c(OC)cc23)cc1F	8.54
COc1cc2nccc(Oc3cc(C)c(NC(=O)Nc4ccc(F)cc4F)cc3C)c2cc1OC	8.64
COc1cc2nccc(Oc3ccc(NC(=O)Nc4ccc(F)cc4C)c(Cl)c3)c2cc1OC	9.15

Fill blank: measured pIC50 of the compound `COc1cc2ncnc(Oc3ccc(NC(=O)NCc4ccccn4)cc3)c2cc1OC` is ____.
6.12

Proceed to `COc1cc2nccc(Oc3ccc(NC(=O)Nc4ccc(F)cc4C)c(C)c3C)c2cc1OC`
8.41

One more compound: `COc1cc2nccc(Oc3ccc(NC(=O)Nc4ccc(Cl)cn4)c(C)c3C)c2cc1OC`
8.40

Then this compound: `CCCCNC(=O)Nc1ccc(Oc2ncnc3cc(OC)c(OC)cc23)cc1C`
7.28

----------
Here the recorded pIC50 is given for each entry.
target: MAPK14 (human); experiment: In vitro Inhibition of VEGF Stimulated MAPK Activation
Value format note: pIC50 is -log10 of concentration (mol/L); just state the number.

These solved cases illustrate the format of a correct answer.
QUERY SMILES	pIC50
COc1cc2ncnc(Oc3ccc(NC(=O)Nc4ccc(F)cc4)c(C)c3)c2cc1OC	8.64
COc1cc2ncnc(Oc3ccc(NC(=O)Nc4ccccc4C)c(F)c3)c2cc1OC	8.57
COc1cc2ncnc(Oc3ccc(NC(=O)Nc4ccc(Cl)cn4)c(Cl)c3)c2cc1OC	7.24

Look up pIC50: `COc1cc2nccc(Oc3ccc(NC(=O)Nc4cccc(C)n4)c(Cl)c3)c2cc1OC`
8.47

----------
Entries and their measured pIC50 follow.
molecular target: MAPK14 (human) (UniProt Q16539); assay: In vitro Inhibition of VEGF Stimulated MAPK Activation
Sequence (Q16539 whole entry, looked up): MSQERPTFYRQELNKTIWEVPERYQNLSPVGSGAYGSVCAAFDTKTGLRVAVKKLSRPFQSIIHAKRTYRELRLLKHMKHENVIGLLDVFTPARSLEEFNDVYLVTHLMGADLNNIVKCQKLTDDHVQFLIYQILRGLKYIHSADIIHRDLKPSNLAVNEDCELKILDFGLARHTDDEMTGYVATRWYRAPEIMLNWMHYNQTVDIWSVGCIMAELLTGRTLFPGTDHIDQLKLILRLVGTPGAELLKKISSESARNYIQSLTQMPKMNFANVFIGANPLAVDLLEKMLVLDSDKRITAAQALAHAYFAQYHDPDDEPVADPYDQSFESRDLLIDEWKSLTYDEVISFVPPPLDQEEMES
// pIC50 here means minus log10 of the molar concentration (mol/L)

Check out these entries, answers already filled in.
COMPOUND	pIC50
CCC(C)NC(=O)Nc1ccc(Oc2ncnc3cc(OC)c(OC)cc23)cc1F (stereo not drawn)	7.38
C=CCNC(=O)Nc1ccc(Oc2ccnc3cc(OC)c(OC)cc23)cc1F	8.68
COc1cc2nccc(Oc3cc(C)c(NC(=O)Nc4ccccc4C)cc3C)c2cc1OC	8.23
CCNC(=O)Nc1ccc(Oc2ccnc3cc(OC)c(OC)cc23)cc1F	7.96
COc1cc2ncnc(Oc3ccc(NC(=O)NCc4ccc(F)cc4F)c(F)c3)c2cc1OC	7.85

Could you share which pIC50 value was measured for `COCCOc1cc2nccc(Oc3cc(C)c(NC(=O)Nc4ccc(F)cc4F)cc3C)c2cc1OC` ?
8.29

What do you have for `COc1ccccc1NC(=O)Nc1cc(C)c(Oc2ccnc3cc(OCCN4CCOCC4)c(OC)cc23)cc1C` ?
8.23

Try the compound `COc1cc2nccc(Oc3ccc(NC(=O)Nc4ccc(Cl)cc4C)c(C)c3C)c2cc1OC`
8.14

Proceed to `COc1cc2nccc(Oc3ccc(NC(=O)Nc4ccc(Br)cn4)c(Cl)c3)c2cc1OC`
7.96
